systemName: fibrinogen receptor (glycoprotein IIb/IIIa) (Homo sapiens, UniProt P05106+P08514)
Construct: its receptor (glycoprotein IIb/IIIa) on intact, gel-filtered human platelets; endogenous in cells; host or cells: gel-filtered platelets from human donor blood, stimulated with ADP (10 uM)
Sequence (P08514 32-887 limits assumed): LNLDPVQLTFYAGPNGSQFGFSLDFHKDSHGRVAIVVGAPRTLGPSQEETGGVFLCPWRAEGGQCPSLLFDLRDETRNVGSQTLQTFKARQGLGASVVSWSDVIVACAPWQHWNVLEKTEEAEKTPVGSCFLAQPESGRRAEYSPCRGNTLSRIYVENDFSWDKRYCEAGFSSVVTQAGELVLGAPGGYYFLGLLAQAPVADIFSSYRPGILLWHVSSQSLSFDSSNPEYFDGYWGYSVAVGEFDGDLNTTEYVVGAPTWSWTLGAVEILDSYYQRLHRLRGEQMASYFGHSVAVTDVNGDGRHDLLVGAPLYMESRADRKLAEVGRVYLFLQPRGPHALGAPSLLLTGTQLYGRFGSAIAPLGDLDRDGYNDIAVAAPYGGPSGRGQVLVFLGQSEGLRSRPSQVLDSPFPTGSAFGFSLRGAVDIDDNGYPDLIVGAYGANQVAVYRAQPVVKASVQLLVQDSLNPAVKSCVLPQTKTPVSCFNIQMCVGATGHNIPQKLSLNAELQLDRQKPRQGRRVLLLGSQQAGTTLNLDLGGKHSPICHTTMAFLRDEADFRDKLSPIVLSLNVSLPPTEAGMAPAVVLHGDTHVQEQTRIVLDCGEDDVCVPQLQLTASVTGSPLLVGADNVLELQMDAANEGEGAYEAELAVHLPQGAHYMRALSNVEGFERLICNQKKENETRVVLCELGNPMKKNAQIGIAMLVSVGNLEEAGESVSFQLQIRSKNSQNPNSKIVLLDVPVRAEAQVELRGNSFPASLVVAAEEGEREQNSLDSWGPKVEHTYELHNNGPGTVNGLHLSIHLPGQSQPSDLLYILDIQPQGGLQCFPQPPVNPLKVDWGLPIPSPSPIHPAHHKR
Sequence (P08514 891-1039 limits assumed): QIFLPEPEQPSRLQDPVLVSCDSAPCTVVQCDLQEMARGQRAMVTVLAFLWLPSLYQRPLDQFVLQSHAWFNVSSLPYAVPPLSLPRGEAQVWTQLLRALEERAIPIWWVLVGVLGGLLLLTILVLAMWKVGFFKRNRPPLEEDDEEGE
Sequence (P05106 27-788): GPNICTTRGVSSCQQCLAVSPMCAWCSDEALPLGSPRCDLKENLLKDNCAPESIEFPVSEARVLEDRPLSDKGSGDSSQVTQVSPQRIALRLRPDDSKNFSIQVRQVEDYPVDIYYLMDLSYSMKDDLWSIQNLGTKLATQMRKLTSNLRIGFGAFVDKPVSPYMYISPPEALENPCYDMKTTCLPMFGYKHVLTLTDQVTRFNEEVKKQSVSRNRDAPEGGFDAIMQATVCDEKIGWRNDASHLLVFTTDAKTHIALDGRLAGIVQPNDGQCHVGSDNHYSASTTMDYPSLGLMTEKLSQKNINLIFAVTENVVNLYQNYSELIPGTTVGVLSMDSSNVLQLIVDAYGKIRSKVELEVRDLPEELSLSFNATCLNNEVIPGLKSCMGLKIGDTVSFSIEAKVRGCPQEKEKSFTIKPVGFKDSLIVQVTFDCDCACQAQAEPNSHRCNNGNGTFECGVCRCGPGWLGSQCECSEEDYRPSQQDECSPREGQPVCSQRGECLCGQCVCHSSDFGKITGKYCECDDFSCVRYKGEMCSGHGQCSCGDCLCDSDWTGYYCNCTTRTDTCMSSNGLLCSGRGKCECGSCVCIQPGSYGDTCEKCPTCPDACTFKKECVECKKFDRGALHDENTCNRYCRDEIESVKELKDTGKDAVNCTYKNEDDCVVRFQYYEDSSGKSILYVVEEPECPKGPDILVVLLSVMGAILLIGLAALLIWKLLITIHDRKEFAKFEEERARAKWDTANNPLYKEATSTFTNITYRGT
test: Inhibition of binding of 125I-fibrinogen to its receptor on intact, gel-filtered human platelets
conditionsUsed: inhibition of 125I-fibrinogen binding after stimulation with ADP (10 μM), read-out: Ki (μM), ADP-stimulated
outcomeMeasure: Ki (µM)
The response must be a number in µM with no trailing unit.

# Ki (molecule: "N=C(N)c1ccc(NC(=O)NCC(=O)N[C@@H](CC(=O)O)C(=O)N[C@H](C(=O)O)c2ccccc2)cc1" ) is 0.03
